tested on: HS 578T breast; test: NCI-60 one-dose screen, 48 h; settings: 10 µM unless noted
About 83,000 compounds went through this panel and 20% of them were active in at least one assay; those are over-represented in the sample as a whole. Active and inactive are the calls of the source. How the source made its calls: active means growth percent below 10; inactive means the rest.
Outcome codes: 1 (active), 0 (inactive)

>  <COMPOUND>
FC(F)(F)c1cc2c(Cl)ncnc2n1CCN1CCOCC1

>  <CLASS_NAME>
0

$$$$
>  <COMPOUND>
O=C1Nc2ccccc2/C1=C/C(=O)c1cc2ccccc2oc1=O

>  <CLASS_NAME>
0

$$$$
>  <COMPOUND>
Cc1cc(C2(c3cc(C)c(OCC(O)CNc4c(C)n(C)n(-c5ccccc5)c4=O)cc3C(C)C)OC(=O)c3ccccc32)c(C(C)C)cc1OCC(O)CNc1c(C)n(C)n(-c2ccccc2)c1=O (centres undefined)

>  <CLASS_NAME>
0

$$$$
>  <COMPOUND>
Cc1[nH]nc2ccc3nc(-c4cn[nH]c4C(F)(F)F)c4c(c3c12)CCCC4

>  <CLASS_NAME>
1

$$$$

====

tested on: NCI-H522 lung; assay: NCI-60 one-dose screen, 48 h (100 = growth as untreated, 0 = no growth, -100 = all killed); details: 10 µM unless noted
This is part of a sample that, as a whole, favours compounds with a hit. Of some 83,000 tested, about 20% had one in any assay.
The threshold is inclusive: growth of exactly 20% counts as fulfilled; values below receive not fulfilled.

>  <COMPOUND>
CCOC(=O)/C(F)=C/C1CC1C1CCN(C(=O)OC(C)(C)C)CC1 (stereo not given)

>  <CLASS_NAME>
fulfilled

$$$$
>  <COMPOUND>
O=C(NC(=S)N1CCN(c2ncnc3c2cnn3-c2ccccc2)CC1)c1ccc(Br)cc1

>  <CLASS_NAME>
fulfilled

$$$$
>  <COMPOUND>
COc1cc2cc(C(=O)N3C[C@@H](CCl)c4c3cc(OC(=O)N(C)CCSSCCN3CCOCC3)c3ccccc43)[nH]c2c(OC)c1OC

>  <CLASS_NAME>
not fulfilled

$$$$
>  <COMPOUND>
N#Cc1c(-c2ccc(F)cc2)nc(SCc2ccccc2)nc1N1CCNCC1

>  <CLASS_NAME>
not fulfilled

$$$$
>  <COMPOUND>
COc1c(B(O)O)cc(F)cc1-c1nc2ccc3[nH]ncc3c2c2c1COCC2

>  <CLASS_NAME>
not fulfilled

$$$$
>  <COMPOUND>
Nc1nnc(-c2cncc(Br)c2)c(-c2c[nH]c3ccc(Br)cc23)n1

>  <CLASS_NAME>
not fulfilled

$$$$
>  <COMPOUND>
Cc1nc(Nc2ccccn2)sc1C1=NNC(c2ccccc2F)C1 (stereo not given)

>  <CLASS_NAME>
not fulfilled

$$$$
>  <COMPOUND>
O=C1N/C(=N\c2nccs2)S/C1=C\c1ccc([N+](=O)[O-])cc1

>  <CLASS_NAME>
not fulfilled

$$$$
>  <COMPOUND>
CC1=C(C(=O)OC(C)C)C(c2ccc(O)cc2)NC(=O)N1 (stereo not given)

>  <CLASS_NAME>
fulfilled

$$$$
>  <COMPOUND>
CC(C)(C)C(=O)C1CC(C#N)=C2C=Cc3c(ccc4ccccc34)N21 (stereo not given)

>  <CLASS_NAME>
fulfilled

$$$$
>  <COMPOUND>
COC(=O)c1c(C(=O)OC)c2c3ccccc3c3ccccc3n2c1C(=O)C(C)(C)C

>  <CLASS_NAME>
fulfilled

$$$$
>  <COMPOUND>
COc1ccc(CCC2NCCc3c(Br)c4c(c(OC)c32)OCO4)cc1 (stereo not given)

>  <CLASS_NAME>
not fulfilled

$$$$
>  <COMPOUND>
Cc1ccc(C(=O)Nc2cc(-n3ccnc3)cc(C(F)(F)F)c2)cc1-n1cc(-c2cnc3cccnn23)nn1

>  <CLASS_NAME>
fulfilled

$$$$
>  <COMPOUND>
Clc1ccc(-c2nc3c4c(-c5ccccc5)c(-c5ccccc5)n(Cc5ccccc5)c4ncn3n2)cc1

>  <CLASS_NAME>
not fulfilled

$$$$
>  <COMPOUND>
Nc1ccc(-c2ccc3ncnc(N4CCc5cc(F)c(Cl)cc54)c3c2)cn1

>  <CLASS_NAME>
not fulfilled

$$$$
